Hey, just so you know, these numbers are from the METLIN SMRT retention time set (Domingo-Almenara et al. 2019).

# methodSummary: gradient 5% acetonitrile 3 min, to 50% in 2 min, to 85% in 15 min, held 3 min, 100 µL/min
# settings: column: Zorbax Extend-C18 2.1 x 50 mm; eluents: water / acetonitrile, 0.1% formic acid
Here the recorded RP-LC retention time is given for each entry.

{"columns": ["compound", "RP-LC retention time / s"],
 "data": [
  ["O=C(c1cnn(-c2ccccc2)n1)N1CCC(c2nnc(-c3ccc(F)cc3)o2)CC1", 888],
  ["Cc1ccc(C)c(NC(=O)C2CCN(S(C)(=O)=O)c3ccccc3O2)c1 (stereo not given)", 943],
  ["CC(C)c1nnc(NC(=O)CCCOc2ccc(Cl)cc2)s1", 876],
  ["Cc1ccc(C(=O)N2CCC3(CC2)N=C(c2cccc(Br)c2)NO3)cc1", 938],
  ["Cc1nc(Cn2cccc2C(=O)NCc2ccc(Br)cc2)no1", 942]
]}
